All figures here come from PubChem BioAssay AID1259407.

# System: CCRIS mutagenicity, Ames/micronucleus/aberration tests
# assay: CCRIS mutagenicity studies
# measurement-parameters: Test System: AMES SALMONELLA TYPHIMURIUM; Strain/Indicator: TA97; Metabolic Activation: NONE; Method: STANDARD PLATE
Activity calls are given as the source filed them. No rule for the calls is given here.
Output constraint: value belongs to t = active, f = inactive

Example cases with answers are listed next.
CN(C)c1ccc(C(=C2C=CC(=N)C=C2)c2ccc(N(C)C)cc2)cc1 ... f
COc1c(Cl)ccc(Cl)c1C(=O)O ... f

query: // outcome(item) with item = `CCNc1nc(N)nc(Cl)n1`
result: f

query: // outcome(item) with item = `O=CN(O)c1ccc(Cl)c(Cl)c1`
result: f

----------
# System: CCRIS mutagenicity, Ames/micronucleus/aberration tests
# assay: CCRIS mutagenicity studies
# measurement-parameters: Test System: AMES SALMONELLA TYPHIMURIUM; Strain/Indicator: TA98; Metabolic Activation: RAT LIVER S-9, PHENOBARBITAL AND BETA-NAPHTHOFLAVONE; Method: PREINCUBATION
Active and inactive are the calls of the source. The rule behind the calls is not given here.
Output constraint: value belongs to active, inactive

Example cases with answers are listed next.
N#Cc1ccccc1 ... inactive
c1ccc2ncccc2c1 ... active
Nc1cc(S(=O)(=O)O)cc2cc(S(=O)(=O)O)cc(O)c12 ... inactive
O=C(O)c1cc2ccccc2cc1O ... inactive
CC(C)C(=O)OCC(C)(C)C(O)C(C)C (configuration not stated) ... inactive

query: // outcome(item) with item = `O=Cc1ccc(O)cc1`
result: inactive

query: // outcome(item) with item = `c1ccc2cc(Nc3ccc(Nc4ccc5ccccc5c4)cc3)ccc2c1`
result: inactive

query: // outcome(item) with item = `C=CC[N+](C)(C)CC=C`
result: inactive

query: // outcome(item) with item = `NNc1ccccc1`
result: active

query: // outcome(item) with item = `Oc1ccc(Cc2ccccc2O)cc1`
result: inactive

query: // outcome(item) with item = `N#Cc1ccccc1C#N`
result: inactive

query: // outcome(item) with item = `O=CCCCC=O`
result: inactive

----------
# Test system: CCRIS mutagenicity, Ames/micronucleus/aberration tests
# assay: CCRIS mutagenicity studies
# measurement-parameters: Test System: AMES SALMONELLA TYPHIMURIUM; Strain/Indicator: TA100; Metabolic Activation: RAT, LIVER, S-9, AROCLOR 1254; Method: STANDARD PLATE
The source made the active and inactive calls. The rule behind the calls is not given here.
Output constraint: value belongs to true (1) (active), false (0) (inactive)

Example cases with answers are listed next.
CNc1ccc(N(CCO)CCO)cc1[N+](=O)[O-] ... false (0)
COCC=O ... false (0)
O=C(c1ccccc1)[C@@H]1O[C@@H]1c1ccc(Br)cc1 ... false (0)
CC(=O)c1cccn1[N+](=O)[O-] ... true (1)
OC1C=C2c3cc4ccccc4cc3-c3cccc(c32)C1O (stereo unspecified) ... true (1)

query: // outcome(item) with item = O=C1C=C[C@]2(O)c3c(ccc(O)c31)-c1ccc(O)c3c1[C@H]2C1OC1C3=O (stereo partly specified)
result: true (1)

query: // outcome(item) with item = `O=S(=O)(c1ccc(Cl)cc1)c1cc(Cl)c(Cl)cc1Cl`
result: false (0)

query: // outcome(item) with item = `COc1ccc2cc1Oc1ccc(cc1)C[C@H]1c3cc(c(OC)cc3CCN1C)Oc1c(OC)c(OC)cc3c1[C@H](C2)N(C)CC3`
result: false (0)

query: // outcome(item) with item = `O=c1oc2ccc([N+](=O)[O-])cc2c2ccccc12`
result: true (1)

query: // outcome(item) with item = `COC(=O)Nc1nc2ccc(C(=O)c3ccc(F)cc3)cc2[nH]1`
result: false (0)

query: // outcome(item) with item = `c1ccc2c(c1)Cc1c-2ccc2ccc3ccccc3c12`
result: true (1)

----------
# Test system: CCRIS mutagenicity, Ames/micronucleus/aberration tests
# assay: CCRIS mutagenicity studies
# measurement-parameters: Test System: AMES SALMONELLA TYPHIMURIUM; Strain/Indicator: TA100; Metabolic Activation: RAT, LIVER, S-9, AROCLOR 1254; Method: PREINCUBATION
The source made the active and inactive calls. No rule for the calls is given here.
Output constraint: value belongs to active, inactive

Example cases with answers are listed next.
O=NN1CCSC1CO (stereo unspecified) ... active
Brc1ccc(-c2ccccc2)cc1 ... inactive

query: // outcome(item) with item = `CC(=O)OCc1ccccc1[N+](=O)[O-]`
result: inactive

query: // outcome(item) with item = `COc1cc2c(c3oc(=O)c4c(c13)CCC4=O)[C@H]1[C@@H](O2)O[C@@H]2O[C@@H]21`
result: active

query: // outcome(item) with item = `COc1ccc2nc(N)[nH]c2c1`
result: inactive

query: // outcome(item) with item = `O=c1[nH]c(=O)n([C@H]2C[C@H](O)[C@@H](CO)O2)cc1I`
result: inactive

query: // outcome(item) with item = `Clc1ccccc1Cl`
result: inactive

query: // outcome(item) with item = `COc1ccc2c3c([nH]c2c1)C(C)=NCC3`
result: inactive

query: // outcome(item) with item = `CCCC(=O)OCc1ccccc1[N+](=O)[O-]`
result: inactive

query: // outcome(item) with item = `Cc1nn(C)c(N)c1C(=O)c1ccccc1F`
result: active

query: // outcome(item) with item = `Cc1cc2ncccc2c2ncn(C)c12`
result: inactive

----------
# System: CCRIS mutagenicity, Ames/micronucleus/aberration tests
# assay: CCRIS mutagenicity studies
# measurement-parameters: Test System: AMES SALMONELLA TYPHIMURIUM; Strain/Indicator: TA100; Metabolic Activation: HAMSTER, LIVER, S-9, AROCLOR 1254 (10%); Method: PREINCUBATION
Activity calls are given as the source filed them. How the calls were made is not given here.
Output constraint: value belongs to T for active, F for inactive

Example cases with answers are listed next.
CC(C)N ... F
CCOCCO ... F
C[N+](=O)[O-] ... F
OCC(Cl)CCl (configuration not stated) ... T
C=CCOC(=O)c1ccccc1N ... F

query: // outcome(item) with item = `CN(C)CCN(C)C`
result: F

query: // outcome(item) with item = `O=c1c2ccc3c4c(ccc(c24)c2nc4ccccc4n12)c(=O)n1c2ccccc2nc31`
result: F

query: // outcome(item) with item = `Cc1ccccc1Br`
result: F

query: // outcome(item) with item = `Cc1cc(O)ccc1Cl`
result: F

query: // outcome(item) with item = `c1ccc2c(c1)-c1cccc3c1c-2cc1ccccc13`
result: T

query: // outcome(item) with item = `[Ga]#[As]`
result: F

query: // outcome(item) with item = `c1ccc(Nc2ccc3ccccc3c2)cc1`
result: F

----------
# Tested on: CCRIS mutagenicity, Ames/micronucleus/aberration tests
# assay: CCRIS mutagenicity studies
# measurement-parameters: Test System: AMES SALMONELLA TYPHIMURIUM; Strain/Indicator: TA100; Metabolic Activation: RAT, LIVER, S-9, AROCLOR 1254 (10%); Method: PREINCUBATION
Active and inactive are the calls of the source. How the calls were made is not given here.
property-label: mutagenic call

Known results for molecules:
CN(C)CCCN1c2ccccc2Sc2ccc(Cl)cc21 ... inactive; negative
C=CC(=O)OCCOCCOCCOCCOC(=O)C=C ... inactive; negative
Cc1cc(Cl)ccc1O ... inactive; negative
C=CC(=O)OCCBr ... active; positive

Need mutagenic call for each of these molecules.
1. CCCCCCOC(=O)c1ccccc1C(=O)OCCCCCC
2. c1ccc2c(c1)Nc1ccccc1S2
3. CCC(C)C(C)CO (stereo not given)
4. Nc1cc(Cl)ccc1Cl
5. CCOC(/C=C(\C)CCC=C(C)C)OCC
6. CN(C)CCN(C)C
7. CCC[CH2][Sn]([CH2]CCC)([O]C(C)=O)[O]C(C)=O

result:
1: inactive; negative; 2: inactive; negative; 3: inactive; negative; 4: inactive; negative; 5: inactive; negative; 6: inactive; negative; 7: inactive; negative

Need mutagenic call for each of these molecules.
1. CCCCC(CC)COC(=O)c1ccccc1C(=O)O (stereo not given)
2. CC/C=C1\OC(=O)c2ccccc21
3. CC(CC(=O)O)C(=O)O (stereo not given)
4. OCCOCCO

result:
1. inactive; negative
2. active; positive
3. inactive; negative
4. inactive; negative

----------
# Test system: CCRIS mutagenicity, Ames/micronucleus/aberration tests
# assay: CCRIS mutagenicity studies
# measurement-parameters: Test System: AMES SALMONELLA TYPHIMURIUM; Strain/Indicator: TA100; Metabolic Activation: RAT LIVER S-9, AROCLOR 1254; Method: STANDARD PLATE
Calls of active or inactive are those of the source. How the calls were made is not given here.
property-label: mutagenic call

Cc1cc(C)c(S(=O)(=O)O)cc1N=Nc1cc(S(=O)(=O)O)c2ccccc2c1O ... inactive; negative
COC1=CC(=O)c2c(nc(C)c3c4c([nH]c23)CCCC4)C1=O ... inactive; negative
Oc1c(Cl)c(Cl)c(Cl)c(Cl)c1Cl ... inactive; negative
